tgt: T1, Human TREM2 extracellular domain (ECD), residues 19-131, C-terminally biotinylated, deglycosylated (human, UniProt Q9NZC2 19-131, C-terminally biotinylated; deglycosylated)
T1 construct: range 19-131; loaded on Superstreptavidin biosensors; also called triggering receptor expressed on myeloid cells 2; Human BLI (deglycosylated)
T1 sequence (looked up): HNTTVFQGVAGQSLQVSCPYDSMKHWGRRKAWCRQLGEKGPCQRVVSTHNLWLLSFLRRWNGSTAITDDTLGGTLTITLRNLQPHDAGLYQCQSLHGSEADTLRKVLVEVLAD
assay_notes: BLI steady state, deglycosylated human TREM2 ECD on sensor
*1 amine or outer side, *2 acyl side, *3 side chain or, on linkers, in order; H or OH if unused. Bridges are numbered along the chain shown (N, C = ends). Where no end group is shown, it is not given here. TATA = O=C(CC[*:1])N1CN(C(=O)CC[*:2])CN(C(=O)CC[*:3])C1
metric_name: Kd (nM)
Give the quantity in nM, number only.

Problem: If you can, please state the reported Kd value of ACSYYCFWPFQSCA-NH2 (linker 2-6-13 via TATA; N-terminus assumed; SMILES C[C@H](N)C(=O)N[C@H]1CSCCC(=O)N2CN3CN(C2)C(=O)CCSC[C@H](NC(=O)[C@H](Cc2ccc(O)cc2)NC(=O)[C@H](Cc2ccc(O)cc2)NC(=O)[C@H](CO)NC1=O)C(=O)N[C@@H](Cc1ccccc1)C(=O)N[C@@H](Cc1c[nH]c2ccccc12)C(=O)N1CCC[C@H]1C(=O)N[C@@H](Cc1ccccc1)C(=O)N[C@@H](CCC(N)=O)C(=O)N[C@@H](CO)C(=O)N[C@H](C(=O)N[C@@H](C)C(N)=O)CSCCC3=O) [BCY19766] .
Result: 1000
